- experiment.notes: Biodistribution, CHO-K1-GRPR + CHO-K1-PSMA dual xenograft mice
- test.settings: female, NOD SCID, mouse, adrenal, intravenous, 1.08 nmol, total radioactivity, Biodistribution: Adrenal, Mouse #6; single tracer; dual xenograft; 25.2 h p.i.; 1.08 nmol
assay.readout: tissue uptake at 25.2 h (%ID/g)
The response must be a number in %ID/g with no trailing unit.

Incoming: I have this molecule here, CC(C)C[C@H](NC(=O)C[C@H](O)[C@H](CC(C)C)NC(=O)[C@H](Cc1c[nH]cn1)NC(=O)CNC(=O)[C@@H](NC(=O)[C@H](C)NC(=O)[C@H](Cc1c[nH]c2ccccc12)NC(=O)[C@H](CCC(N)=O)NC(=O)[C@@H](Cc1ccccc1)NC(=O)CN1CCC(NC(=O)CN2CCN(CC(=O)O)CCN(CC(=O)O)CCN(CC(=O)O)CC2)CC1)C(C)C)C(N)=O [[^111In]In-RM2, metal not drawn] , and I need its recorded tissue uptake at 25.2 h.
Outgoing: 0.16

###

- experiment.notes: Biodistribution, CHO-K1-GRPR + CHO-K1-PSMA dual xenograft mice
- test.settings: female, NOD SCID, mouse, muscle, intravenous, 0.58 nmol, total radioactivity, Biodistribution: Muscle, Mouse #4; single tracer; dual xenograft; 24.2 h p.i.; 0.58 nmol
assay.readout: tissue uptake at 24.2 h (%ID/g)
Please respond with the number in %ID/g and leave the unit unwritten.

Incoming: Quick one: tissue uptake at 24.2 h for CC(C)C[C@H](NC(=O)C[C@H](O)[C@H](CC(C)C)NC(=O)[C@H](Cc1c[nH]cn1)NC(=O)CNC(=O)[C@@H](NC(=O)[C@H](C)NC(=O)[C@H](Cc1c[nH]c2ccccc12)NC(=O)[C@H](CCC(N)=O)NC(=O)[C@@H](Cc1ccccc1)NC(=O)CN1CCC(NC(=O)CN2CCN(CC(=O)O)CCN(CC(=O)O)CCN(CC(=O)O)CC2)CC1)C(C)C)C(N)=O [[^111In]In-RM2, metal not drawn] ?
Outgoing: 0.01

###

- experiment.notes: Biodistribution, CHO-K1-GRPR + CHO-K1-PSMA dual xenograft mice
- test.settings: female, NOD SCID, mouse, intestine (empty), intravenous, 0.37 nmol, total radioactivity, Biodistribution: Intestine (empty), Mouse #5; single tracer; dual xenograft; 24.2 h p.i.; 0.37 nmol
assay.readout: tissue uptake at 24.2 h (%ID/g)
Respond with the bare value in %ID/g.

Incoming: // lookup tissue uptake at 24.2 h for CC(C)C[C@H](NC(=O)C[C@H](O)[C@H](CC(C)C)NC(=O)[C@H](Cc1c[nH]cn1)NC(=O)CNC(=O)[C@@H](NC(=O)[C@H](C)NC(=O)[C@H](Cc1c[nH]c2ccccc12)NC(=O)[C@H](CCC(N)=O)NC(=O)[C@@H](Cc1ccccc1)NC(=O)CN1CCC(NC(=O)CN2CCN(CC(=O)O)CCN(CC(=O)O)CCN(CC(=O)O)CC2)CC1)C(C)C)C(N)=O [[^111In]In-RM2, metal not drawn]
Outgoing: 0.06

###

- experiment.notes: Biodistribution, CHO-K1-GRPR + CHO-K1-PSMA dual xenograft mice
- test.settings: female, NOD SCID, mouse, CHO-K1-GRPR xenograft tumor, intravenous, total radioactivity, Uptake in CHO-K1-GRPR xenografts, dual-tracer mice #8 and #9; range
assay.readout: tissue uptake

Incoming: GET /values?readout=tissue uptake&item= CC(C)C[C@H](NC(=O)C[C@H](O)[C@H](CC(C)C)NC(=O)[C@H](Cc1c[nH]cn1)NC(=O)CNC(=O)[C@@H](NC(=O)[C@H](C)NC(=O)[C@H](Cc1c[nH]c2ccccc12)NC(=O)[C@H](CCC(N)=O)NC(=O)[C@@H](Cc1ccccc1)NC(=O)CN1CCC(NC(=O)CN2CCN(CC(=O)O)CCN(CC(=O)O)CCN(CC(=O)O)CC2)CC1)C(C)C)C(N)=O [[^111In]In-RM2, metal not drawn]
Outgoing: 0.26 to 0.38 %ID/g
